SYSTEM: human Nav1.8/b3 (Homo sapiens, UniProt Q9Y5Y9)
Construct: expressed in transfected cells; host or cells: CHO
Sequence (Q9Y5Y9 whole entry): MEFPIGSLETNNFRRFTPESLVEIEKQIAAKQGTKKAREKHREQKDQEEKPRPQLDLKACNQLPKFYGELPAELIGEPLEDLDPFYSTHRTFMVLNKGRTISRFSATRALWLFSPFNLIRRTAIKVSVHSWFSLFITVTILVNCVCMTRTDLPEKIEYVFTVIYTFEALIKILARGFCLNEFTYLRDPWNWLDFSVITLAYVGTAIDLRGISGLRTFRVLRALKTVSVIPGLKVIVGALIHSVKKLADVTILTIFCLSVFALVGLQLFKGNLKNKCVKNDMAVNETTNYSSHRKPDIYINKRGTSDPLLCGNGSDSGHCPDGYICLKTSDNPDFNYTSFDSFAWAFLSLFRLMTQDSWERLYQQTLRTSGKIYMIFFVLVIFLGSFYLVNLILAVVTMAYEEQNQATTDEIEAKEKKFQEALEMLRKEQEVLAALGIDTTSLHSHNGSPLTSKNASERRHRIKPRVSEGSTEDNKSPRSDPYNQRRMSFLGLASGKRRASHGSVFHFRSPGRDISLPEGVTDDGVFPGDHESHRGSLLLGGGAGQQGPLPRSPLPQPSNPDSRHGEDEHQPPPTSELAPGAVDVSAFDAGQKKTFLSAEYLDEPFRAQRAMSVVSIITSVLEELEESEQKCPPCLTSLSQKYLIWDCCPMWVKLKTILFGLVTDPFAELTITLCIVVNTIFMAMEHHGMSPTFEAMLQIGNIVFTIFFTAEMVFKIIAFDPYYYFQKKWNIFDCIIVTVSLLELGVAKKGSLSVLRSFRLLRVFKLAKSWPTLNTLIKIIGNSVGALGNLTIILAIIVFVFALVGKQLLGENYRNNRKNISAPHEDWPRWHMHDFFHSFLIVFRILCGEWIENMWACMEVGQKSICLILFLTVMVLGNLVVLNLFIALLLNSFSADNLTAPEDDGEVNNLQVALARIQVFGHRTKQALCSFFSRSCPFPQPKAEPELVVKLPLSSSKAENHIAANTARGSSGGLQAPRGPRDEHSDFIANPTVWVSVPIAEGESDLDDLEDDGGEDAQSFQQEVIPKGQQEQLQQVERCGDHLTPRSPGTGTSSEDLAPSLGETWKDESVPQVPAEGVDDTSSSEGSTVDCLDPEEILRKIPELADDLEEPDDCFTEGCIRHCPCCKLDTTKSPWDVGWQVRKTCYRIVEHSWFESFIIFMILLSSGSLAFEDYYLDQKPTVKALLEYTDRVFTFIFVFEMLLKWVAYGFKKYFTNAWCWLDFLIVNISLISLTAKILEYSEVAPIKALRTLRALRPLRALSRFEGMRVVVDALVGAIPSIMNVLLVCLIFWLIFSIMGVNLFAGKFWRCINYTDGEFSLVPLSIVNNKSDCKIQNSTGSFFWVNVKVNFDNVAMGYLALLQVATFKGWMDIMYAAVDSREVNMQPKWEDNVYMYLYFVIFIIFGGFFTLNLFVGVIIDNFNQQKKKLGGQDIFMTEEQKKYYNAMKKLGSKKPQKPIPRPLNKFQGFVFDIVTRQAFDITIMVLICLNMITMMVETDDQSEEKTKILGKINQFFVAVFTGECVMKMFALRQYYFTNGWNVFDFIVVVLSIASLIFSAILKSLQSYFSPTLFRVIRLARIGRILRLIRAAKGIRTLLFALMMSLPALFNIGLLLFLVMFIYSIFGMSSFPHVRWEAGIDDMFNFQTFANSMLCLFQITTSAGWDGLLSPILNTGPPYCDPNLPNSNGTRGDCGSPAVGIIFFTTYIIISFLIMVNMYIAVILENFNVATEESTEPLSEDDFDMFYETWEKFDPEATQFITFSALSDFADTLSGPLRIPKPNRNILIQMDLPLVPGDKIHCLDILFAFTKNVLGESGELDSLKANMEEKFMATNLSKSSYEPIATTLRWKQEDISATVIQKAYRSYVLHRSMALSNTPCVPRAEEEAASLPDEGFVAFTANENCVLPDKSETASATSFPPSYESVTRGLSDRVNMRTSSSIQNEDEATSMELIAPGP
Sequence (Q9NY72 23-215 partner): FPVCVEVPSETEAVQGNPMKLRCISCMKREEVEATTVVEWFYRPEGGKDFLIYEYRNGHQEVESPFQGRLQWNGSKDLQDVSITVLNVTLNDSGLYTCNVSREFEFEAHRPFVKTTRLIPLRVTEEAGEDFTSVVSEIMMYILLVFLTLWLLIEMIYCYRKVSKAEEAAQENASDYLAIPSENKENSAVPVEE
ASSAY_OVERVIEW: Compound Profiling Human NaV1.8/β3 Cell Line—SyncroPatch384PE Assay (automated patch clamp, stably transfected CHO cells)
Format: cell-based
EXPERIMENTAL_CONTEXT: P1 (IC50, resting state block), P1 measurement, resting state block; Nav1.8/b3 CHO cells, holding potential −120 mV; first set of compounds
pIC50: −log10 of the molar value.
# pIC50 per entry

[
  {
    "COMPOUND": "Cc1nc(F)ccc1Oc1cc(C2CC2)c(C(F)(F)F)c(C)c1C(=O)Nc1cccc([S@@](C)(=N)=O)c1 [Example 42A]",
    "pIC50": "> 8.30"
  },
  {
    "COMPOUND": "Cc1nc(F)ccc1Oc1cc(C2CC2)c(C(F)(F)F)c(C)c1C(=O)Nc1ccnc([S@](C)(=N)=O)c1 [Example 39A]",
    "pIC50": "> 8.30"
  },
  {
    "COMPOUND": "Cc1nc(F)ccc1Oc1cc(C2CC2)c(C(F)(F)F)cc1C(=O)Nc1cccc([S@@](C)(=N)=O)c1 [Example 59A]",
    "pIC50": "> 8.30"
  }
]

# context switch: different compound, same pIC50
Recorded result, Cc1nc(F)ccc1Oc1cc(C(F)(F)F)c(Cl)cc1C(=O)Nc1ccnc([S@@](C)(=N)=O)c1 (single isomer, unassigned) [Example 5A] , pIC50: 7.30 to 8.30
